Attribution: patent US20250376533A1

system: T1, cynomolgus CD40 antigen (ACROBiosystems) (cynomolgus, UniProt G7PG38 21-193)
T1 construct: Bought antigen coated on ELISA plates; construct not described
experiment summary: ELISA, coated antigen
pEC50: −log10 of the molar value.

binder	pEC50
anti-CD40 monoclonal antibody 1652CD (antibody, human IgG2, kappa, V domains shown) VH: EVQLVESGGGLVQPGGSLRLSCAASGFTFSDYYMSWVRQAPGKGLEWVGFIRNKANAYTTEYAASVKGRFTISRDNSKNTLYLQMNSLRAEDTAVYYCARYGGLRQGWYFDVWGQGTLVTVSS VL: DIQMTQSPSSLSASVGDRVTITCRASQDIRNYLNWYQQKPGKAPKLLIYYTSRRDSGVPSRFSGSGSGTDYTLTISSLQPEDFATYFCQQGKTLPWTFGGGTKVEIKR	10.74
anti-CD40 monoclonal antibody 1605CD (antibody, human IgG2, kappa, V domains shown) VH: EVQLVESGGGLVQPGGSLRLSCAASGFTFSNYYMSWVRQAPGKGLEWVAFIRNKANAYTTEYAASVKGRFTISRDNSKSTLYLQMNSLRAEDTAVYYCARYGGIRVGWYFDLWGQGTLVTVSS VL: DIQMTQSPSSLSASVGDRVTITCRASQDIRNYLNWYQQKPGKAPKLLIYYTSRLQSGVPSRFSGSGSGTDYTLTISSLQPEDFATYYCQQGQSFPWTFGGGTKVEIKR	10.68
anti-CD40 monoclonal antibody 1654CD (antibody, human IgG2, kappa, V domains shown) VH: EVQLVESGGGLVQPGGSLRLSCAASGFTFSNYYMSWVRQAPGKGLEWVGFIRNKANAYTTEYAASVKGRFTISRDNSKSTLYLQMNRLRAEDTAVYYCARYGGLKVGWYFDLWGQGTLVTVSS VL: DIQMTQSPSSLSASVGDRVTITCRASQSISNYLAWYQQKPGKAPKLLIYAASSLQSGVPSRFSGSGSGTDYTLTISSLQPEDFATYYCQQGSSYPWTFGGGTKVEIKR	10.82
anti-CD40 monoclonal antibody 1608CD (antibody, human IgG2, kappa, V domains shown) VH: EVQLVESGGGLVQPGGSLRLSCAASGFTFSNYYMSWVRQAPGKGLEWVGFIRNKANGYTTEYAASVKGRFTISRDNSKSTLYLQMNRLRAEDTAVYYCARYGGLKVGWYFDLWGQGTLVTVSS VL: DIQMTQSPSSLSASVGDRVTITCRASQSISNYLAWYQQKPGKAPKLLIYAASSLQSGVPSRFSGSGSGTDYTLTISSLQPEDFATYYCQQGSSYPWTFGGGTKVEIKR	10.68
